// reported IC50 per item
biological target: Large T antigen (Simian virus 40); type: functional, Betapolyomavirus macacae;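 also: Confirmatory-stage PubChem screen for compounds that inhibit SV40 T antigen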
Sequence (P03070 whole entry): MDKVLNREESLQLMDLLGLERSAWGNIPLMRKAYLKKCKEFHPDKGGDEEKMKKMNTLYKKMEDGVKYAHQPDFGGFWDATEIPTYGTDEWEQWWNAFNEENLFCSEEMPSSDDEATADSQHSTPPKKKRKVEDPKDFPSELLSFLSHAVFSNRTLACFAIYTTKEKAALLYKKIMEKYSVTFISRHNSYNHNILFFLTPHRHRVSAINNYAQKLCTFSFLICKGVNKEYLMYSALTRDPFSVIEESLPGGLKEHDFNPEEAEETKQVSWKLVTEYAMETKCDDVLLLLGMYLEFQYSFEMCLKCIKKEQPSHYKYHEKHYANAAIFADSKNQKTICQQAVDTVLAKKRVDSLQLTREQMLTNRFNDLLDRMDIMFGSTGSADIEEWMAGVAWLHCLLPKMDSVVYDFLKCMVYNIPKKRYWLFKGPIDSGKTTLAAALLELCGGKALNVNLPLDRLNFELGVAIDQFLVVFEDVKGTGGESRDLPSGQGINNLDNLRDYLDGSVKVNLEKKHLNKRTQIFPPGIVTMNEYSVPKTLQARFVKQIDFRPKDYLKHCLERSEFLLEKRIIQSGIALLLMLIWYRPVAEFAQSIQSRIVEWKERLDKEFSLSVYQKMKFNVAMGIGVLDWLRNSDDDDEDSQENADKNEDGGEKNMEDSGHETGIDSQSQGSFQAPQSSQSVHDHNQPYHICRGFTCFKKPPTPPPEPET
Calls of active or inactive are those of the source.

Use these answered entries as a reference point.
>>> print(df.to_string())
                                 cpd_smiles                     assayed_target            result
0  Cc1ccc(S(=O)(=O)N2CCN(CC(=O)N/N=C\c3ccc(O)c(O)c3)CC2)cc1  Large T antigen (Simian virus 40)  9.98 µM (active)
1  O=C(O)c1cc(S(=O)(=O)O)cc(Nc2c3ccccc3nc3ccccc23)c1O  Large T antigen (Simian virus 40)  20.2 µM (active)
2  CCCC1=NN2C(=N)/C(=C\c3ccc(SCc4ccco4)o3)C(=O)N=C2S1  Large T antigen (Simian virus 40)  29.3 µM (active)

Problem: Recorded IC50 of `CCOc1ccc(-c2n[nH]c(=S)[nH]2)cc1` , please.
Solution: > 100 µM (active)

Problem: Report IC50 for `CN(C(=S)Nc1cccnc1)c1ccc(O)cc1` please.
Solution: 58.4 µM (active)

Problem: IC50 for `CCN(CC)c1ccc(NC(=O)c2ccccc2F)cc1` ?
Solution: 18.8 µM (active)

====

test system: Streptococcus; assay: Group A Streptococcus viability loss, dose response, counter-screen for streptokinase expression inhibitor project, luminescence, BacTiterGlo (AID 1915); type: functional, organism-based;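 also: potency for reduction of bacterial viability or growth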
Activity calls are given as the source filed them.
In this section, each of the compounds is paired with its reported EC50.

These solved cases illustrate the format of a correct answer.
>>> df
                                   compound  assayed_target            result
0         COCc1cc(O)nc(Nc2nc3ccc(C)cc3o2)n1   Streptococcus  7.89 µM (active)
1  C/C(=N/NC(=O)c1cc2ccccc2cc1O)C1C(=O)c2ccccc2C1=O   Streptococcus  10.1 µM (active)

Problem: Need EC50 of `COc1ccc(-c2oc(NC(=O)CSc3nc[nH]n3)c(C#N)c2-c2ccc(OC)cc2)cc1` , thanks.
Solution: 16 µM (active)

====

Below, each entry is listed alongside its reported EC50.
Molecular target: Trace amine-associated receptor 1 (Homo sapiens)
Sequence (Q96RJ0 whole entry): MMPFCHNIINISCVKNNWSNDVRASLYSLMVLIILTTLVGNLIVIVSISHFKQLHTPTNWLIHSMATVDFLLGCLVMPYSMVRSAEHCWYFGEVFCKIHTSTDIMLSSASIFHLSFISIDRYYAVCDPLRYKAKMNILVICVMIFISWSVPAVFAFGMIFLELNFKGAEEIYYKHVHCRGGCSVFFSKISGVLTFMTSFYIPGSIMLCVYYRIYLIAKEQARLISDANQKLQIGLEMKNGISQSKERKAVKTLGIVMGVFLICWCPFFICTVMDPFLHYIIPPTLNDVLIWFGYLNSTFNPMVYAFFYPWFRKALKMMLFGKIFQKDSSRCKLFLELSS
Assay: Fluorescence-based cell-based high throughput dose response assay to identify agonists of the human trace amine associated receptor 1 (TAAR1).
Format: functional
Calls of active or inactive are those of the source.

Solved cases below.
                                   compound                            assayed_target  readout_label            result
0                Nc1nc(Nc2ccccc2)nc2ccccc12  Trace amine-associated receptor 1 (Homo sapiens)           EC50   160 nM (active)
1  O=C(NCC1CCCO1)c1ccc(NC(=O)c2ccc(Br)cc2)cc1 (centres undefined)  Trace amine-associated receptor 1 (Homo sapiens)           EC50  1450 nM (active)
2  O=C(CC1Nc2ccccc2NC1=O)NCCc1ccccc1 (centres undefined)  Trace amine-associated receptor 1 (Homo sapiens)           EC50  2270 nM (active)

For the next question, use this compound.
Problem: Recorded EC50 of `O=C(O)/C=C/C(=O)NCCc1cccc(Cl)c1` , please.
Solution: 700 nM (active)
